Tested on: A549 cells
test.protocol: cells
condition.parameters: Homo sapiens, A549, 72 h, read-out: TGI
Overview of reported IC (TGI) across a group of molecules:
# output: bare number, implied unit µM

COc1ccc2[nH]c3c(c2c1)C[C@@H](CN)N[C@]31CS[C@@H]2c3c(OC(C)=O)c(C)c4c(c3[C@H](COC1=O)N1[C@@H]2[C@H]2c3c(cc(C)c(OC)c3O)C[C@@H]([C@@H]1O)N2C)OCO4 [Compound 27-S] = 0.0112
COc1c(C)cc2c(c1O)[C@@H]1[C@@H]3[C@@H]4SC[C@]5(N[C@H](CO)Cc6c5oc5ccccc65)C(=O)OC[C@@H](c5c6c(c(C)c(OC(C)=O)c54)OCO6)N3[C@@H](C#N)[C@H](C2)N1C [Compound 38-S] = 0.00855
COc1ccc2[nH]c3c(c2c1)C[C@H](CO)N[C@]31CS[C@@H]2c3c(OC(C)=O)c(C)c4c(c3[C@H](COC1=O)N1[C@@H]2[C@H]2c3c(cc(C)c(OC)c3O)C[C@@H]([C@@H]1C#N)N2C)OCO4 [Compound 18-R] = 0.00134

Reported IC (TGI) of COc1c(C)cc2c(c1O)[C@@H]1[C@@H]3[C@@H]4SC[C@]5(N[C@@H](C)Cc6c5[nH]c5ccccc65)C(=O)OC[C@@H](c5c6c(c(C)c(OC(C)=O)c54)OCO6)N3[C@@H](O)[C@H](C2)N1C [D] : 0.0286

Reported IC (TGI) of COc1ccc2oc3c(c2c1)CCN[C@]31CS[C@@H]2c3c(OC(C)=O)c(C)c4c(c3[C@H](COC1=O)N1[C@@H]2[C@H]2c3c(cc(C)c(OC)c3O)C[C@@H]([C@@H]1C#N)N2C)OCO4 [Compound 34] : 0.0805

Reported IC (TGI) of COc1c(C)cc2c(c1O)[C@@H]1[C@@H]3[C@@H]4SC[C@]5(NCCc6c5oc5ccccc65)C(=O)OC[C@@H](c5c6c(c(C)c(OC(C)=O)c54)OCO6)N3[C@@H](C#N)[C@H](C2)N1C [Compound 31] : 0.0209

Reported IC (TGI) of COc1c(C)cc2c(c1O)[C@@H]1[C@@H]3[C@@H]4SC[C@]5(N[C@@H](CO)Cc6c5[nH]c5ccccc65)C(=O)OC[C@@H](c5c6c(c(C)c(OC(C)=O)c54)OCO6)N3[C@@H](C#N)[C@H](C2)N1C [Compound 3-R] : 0.000579

---

Overview of reported IC (TGI) across a group of compounds:
System: A549 cells
test.protocol: cells
condition.parameters: Homo sapiens, A549, 72 h, read-out: TGI
# output: bare number, implied unit nM

Known IC (TGI) results, listed for orientation:
COc1ccc2[nH]c3c(c2c1)C[C@@H](CN)N[C@]31CS[C@@H]2c3c(OC(C)=O)c(C)c4c(c3[C@H](COC1=O)N1[C@@H]2[C@H]2c3c(cc(C)c(OC)c3O)C[C@@H]([C@@H]1C#N)N2C)OCO4 = 21.9
COc1ccc2oc3c(c2c1)CCN[C@]31CS[C@@H]2c3c(OC(C)=O)c(C)c4c(c3[C@H](COC1=O)N1[C@@H]2[C@H]2c3c(cc(C)c(OC)c3O)C[C@@H]([C@@H]1O)N2C)OCO4 = 8.78

// next item, IC (TGI) requested
Reported IC (TGI) of `COc1ccc2[nH]c3c(c2c1)CCN[C@]31CS[C@@H]2c3c(OC(C)=O)c(C)c4c(c3[C@H](COC1=O)N1[C@@H]2[C@H]2c3c(cc(C)c(OC)c3O)C[C@@H]([C@@H]1O)N2C)OCO4` : 3.57

---

Tested on: A549 cells
test.protocol: cells
condition.parameters: Homo sapiens, A549, 72 h
Overview of reported log10 GI50 across a group of compounds:
Please be aware that the numbers have been log10-transformed from GI50 in nM.

COc1c(C)cc2c(c1O)[C@@H]1[C@@H]3[C@@H]4SC[C@]5(N[C@@H](CN)Cc6c5[nH]c5ccccc65)C(=O)OC[C@@H](c5c6c(c(C)c(OC(C)=O)c54)OCO6)N3[C@@H](C#N)[C@H](C2)N1C = 0.25

Query `COc1c(C)cc2c(c1O)[C@@H]1[C@@H]3[C@@H]4SC[C@]5(N[C@H](C)Cc6c5[nH]c5ccccc65)C(=O)OC[C@@H](c5c6c(c(C)c(OC(C)=O)c54)OCO6)N3[C@@H](C#N)[C@H](C2)N1C` on A549 cells; log10 GI50 returned: 0.92

Query `COc1c(C)cc2c(c1O)[C@@H]1[C@@H]3[C@@H]4SC[C@]5(N[C@@H](CO)Cc6c5oc5ccccc65)C(=O)OC[C@@H](c5c6c(c(C)c(OC(C)=O)c54)OCO6)N3[C@@H](C#N)[C@H](C2)N1C` on A549 cells; log10 GI50 returned: -0.18

Query `COc1c(C)cc2c(c1O)[C@@H]1[C@@H]3[C@@H]4SC[C@]5(N[C@H](C)Cc6c5[nH]c5ccccc65)C(=O)OC[C@@H](c5c6c(c(C)c(OC(C)=O)c54)OCO6)N3[C@@H](O)[C@H](C2)N1C` on A549 cells; log10 GI50 returned: 1.44

Query `COc1ccc2[nH]c3c(c2c1)C[C@H](CN)N[C@]31CS[C@@H]2c3c(OC(C)=O)c(C)c4c(c3[C@H](COC1=O)N1[C@@H]2[C@H]2c3c(cc(C)c(OC)c3O)C[C@@H]([C@@H]1O)N2C)OCO4` on A549 cells; log10 GI50 returned: 0.32

Query `COc1ccc2oc3c(c2c1)CCN[C@]31CS[C@@H]2c3c(OC(C)=O)c(C)c4c(c3[C@H](COC1=O)N1[C@@H]2[C@H]2c3c(cc(C)c(OC)c3O)C[C@@H]([C@@H]1O)N2C)OCO4` on A549 cells; log10 GI50 returned: 0.91

Query `COc1c(C)cc2c(c1O)[C@@H]1[C@@H]3[C@@H]4SC[C@]5(NCCc6c5[nH]c5ccccc65)C(=O)OC[C@@H](c5c6c(c(C)c(OC(C)=O)c54)OCO6)N3[C@@H](O)[C@H](C2)N1C` on A549 cells; log10 GI50 returned: 1.35

Query `COc1c(C)cc2c(c1O)[C@@H]1[C@@H]3[C@@H]4SC[C@]5(N[C@@H](C)Cc6c5[nH]c5ccccc65)C(=O)OC[C@@H](c5c6c(c(C)c(OC(C)=O)c54)OCO6)N3[C@@H](C#N)[C@H](C2)N1C` on A549 cells; log10 GI50 returned: 1.31

Query `COc1ccc2[nH]c3c(c2c1)C[C@H](C(=O)O)N[C@]31CS[C@@H]2c3c(OC(C)=O)c(C)c4c(c3[C@H](COC1=O)N1[C@@H]2[C@H]2c3c(cc(C)c(OC)c3O)C[C@@H]([C@@H]1O)N2C)OCO4` on A549 cells; log10 GI50 returned: 1.96

---

System: MDA-MB-231 cells
test.protocol: cells
condition.parameters: Homo sapiens, MDA-MB-231, 72 h, read-out: TGI
readout.kind: IC (TGI) (µM)
# output: bare number, implied unit µM

Known IC (TGI) results, listed for orientation:
COc1c(C)cc2c(c1O)[C@@H]1[C@@H]3[C@@H]4SC[C@]5(N[C@@H](CO)Cc6c5[nH]c5ccccc65)C(=O)OC[C@@H](c5c6c(c(C)c(OC(C)=O)c54)OCO6)N3[C@@H](C#N)[C@H](C2)N1C [Compound 3-R] = 0.000504
COc1c(C)cc2c(c1O)[C@@H]1[C@@H]3[C@@H]4SC[C@]5(N[C@H](C)Cc6c5[nH]c5ccccc65)C(=O)OC[C@@H](c5c6c(c(C)c(OC(C)=O)c54)OCO6)N3[C@@H](C#N)[C@H](C2)N1C [A] = 0.00938
COc1c(C)cc2c(c1O)[C@@H]1[C@@H]3[C@@H]4SC[C@]5(N[C@H](C)Cc6c5[nH]c5ccccc65)C(=O)OC[C@@H](c5c6c(c(C)c(OC(C)=O)c54)OCO6)N3[C@@H](O)[C@H](C2)N1C [C] = 0.0546

// next item, IC (TGI) requested
Reported IC (TGI) of COc1c(C)cc2c(c1O)[C@@H]1[C@@H]3[C@@H]4SC[C@]5(NCCc6c5[nH]c5ccccc65)C(=O)OC[C@@H](c5c6c(c(C)c(OC(C)=O)c54)OCO6)N3[C@@H](O)[C@H](C2)N1C [ET-736, Ecteinascidin 736] : 0.0252

---

Test system: PSN1 cells
test.protocol: cells
condition.parameters: Homo sapiens, PSN1, 72 h, read-out: TGI
Overview of reported IC (TGI) across a group of compounds:
# output: bare number, implied unit µM

COc1ccc2[nH]c3c(c2c1)C[C@@H](C(=O)O)N[C@]31CS[C@@H]2c3c(OC(C)=O)c(C)c4c(c3[C@H](COC1=O)N1[C@@H]2[C@H]2c3c(cc(C)c(OC)c3O)C[C@@H]([C@@H]1O)N2C)OCO4 [Compound 29-S] = 0.507

Reported IC (TGI) of COc1c(C)cc2c(c1O)[C@@H]1[C@@H]3[C@@H]4SC[C@]5(N[C@H](C)Cc6c5[nH]c5ccccc65)C(=O)OC[C@@H](c5c6c(c(C)c(OC(C)=O)c54)OCO6)N3[C@@H](C#N)[C@H](C2)N1C [A] : 0.0154

Reported IC (TGI) of COc1c(C)cc2c(c1O)[C@@H]1[C@@H]3[C@@H]4SC[C@]5(N[C@H](C)Cc6c5[nH]c5ccccc65)C(=O)OC[C@@H](c5c6c(c(C)c(OC(C)=O)c54)OCO6)N3[C@@H](O)[C@H](C2)N1C [C] : 0.0442
